system: HIV mutant strain Y181C; experiment: Cell-based assay using BH-10 cells, Y181C mutant; settings: Human immunodeficiency virus 1, read-out: EC50 Y181C, BH-10 cells, Y181C mutant
Kindly supply the reported log10(EC50) values for the records listed here.
Scale type: logarithmic (base 10). Underlying EC50 unit: nM.

// log10(EC50) lookup, key: CCCc1cccc(P(=O)(OC)c2c(C(N)=O)[nH]c3ccc(Cl)cc23)c1 (stereo not shown) 1.14

// log10(EC50) lookup, key: COP(=O)(c1cc(F)cc(F)c1)c1c(C(=O)NCc2cc[n+]([O-])cc2)[nH]c2ccc(Cl)cc12 (stereo not shown) [Compound 22a] 1.72

// log10(EC50) lookup, key: COP(=O)(c1ccc(F)cc1)c1c(C(N)=O)[nH]c2ccc(Cl)cc12 (stereo not shown) 1.54

// log10(EC50) lookup, key: COP(=O)(c1ccccc1)c1c(C(=O)NCc2cncn2C)[nH]c2ccc(Cl)cc12 (stereo not shown) [Compound 18as] 1.00

// log10(EC50) lookup, key: CCOP(=O)(c1cccc(CC)c1)c1c(C(N)=O)[nH]c2ccc(Cl)cc12 (stereo not shown) 1.53

// log10(EC50) lookup, key: COP(=O)(c1cc(C)cc(C)c1)c1c(C(=O)NCc2ccccc2N)[nH]c2ccc(Cl)cc12 (stereo not shown) [Compound 18n] 1.94

// log10(EC50) lookup, key: COP(=O)(c1cc(C)cc(C)c1)c1c(C(=O)NCc2ccccc2F)[nH]c2ccc(Cl)cc12 (stereo not shown) [Compound 18az] 1.22

// log10(EC50) lookup, key: COP(=O)(c1cc(F)cc(F)c1)c1c(C(=O)NCc2ccc(C#N)cc2)[nH]c2ccc(Cl)cc12 (stereo not shown) [Compound 18q] 1.55

// log10(EC50) lookup, key: COP(=O)(c1cccc(C#N)c1)c1c(C(N)=O)[nH]c2ccc(Cl)cc12 (stereo not shown) 1.02

// log10(EC50) lookup, key: COP(=O)(c1cc(C)cc(C)c1)c1c(C(=O)NCN2CCOCC2)[nH]c2ccc(Cl)cc12 (stereo not shown) [Compound 18ay] 1.30

// log10(EC50) lookup, key: COP(=O)(c1cc(C)cc(C#N)c1)c1c(C(=O)NCc2ccncc2)[nH]c2ccc(Cl)cc12 (stereo not shown) 0.59

// log10(EC50) lookup, key: COP(=O)(c1cc(C)cc(C)c1)c1c(C(=O)NCc2cccnc2)[nH]c2ccc(Cl)cc12 (stereo not shown) [Compound 18f] 0.77

// log10(EC50) lookup, key: COP(=O)(c1cc(C)cc(C)c1)c1c(C(=O)NCc2cnc[n+]([O-])c2)[nH]c2ccc(Cl)cc12 (stereo not shown) [Compound 22g] 1.03

// log10(EC50) lookup, key: CCOP(=O)(c1ccccc1Cl)c1c(C(N)=O)[nH]c2ccc(Cl)cc12 (stereo not shown) 2.16

// log10(EC50) lookup, key: COP(=O)(c1cc(C)cc(C)c1)c1c(C(=O)NCCc2cc[n+]([O-])cc2)[nH]c2ccc(Cl)cc12 (stereo not shown) [Compound 22c] 1.00

// log10(EC50) lookup, key: COP(=O)(c1cccc(COCc2ccccc2)c1)c1c(C(N)=O)[nH]c2ccc(Cl)cc12 (stereo not shown) 3.06

====

system: HIV mutant strain Y181C; assay: Cell-based assay using BH-10 cells, Y181C mutant; details: Human immunodeficiency virus 1, read-out: EC50 Y181C, BH-10 cells, Y181C mutant
READOUT: EC50
Provide a numeric answer, followed by its unit.

// EC50 lookup, key: COP(=O)(c1ccccc1Cl)c1c(C(N)=O)[nH]c2ccc(Cl)cc12 (centres unmarked) 2 nM

// EC50 lookup, key: CCOP(=O)(c1ccccc1F)c1c(C(N)=O)[nH]c2ccc(Cl)cc12 (centres unmarked) 58.3 nM

// EC50 lookup, key: COP(=O)(c1cccc(C2CC2)c1)c1c(C(N)=O)[nH]c2ccc(Cl)cc12 (centres unmarked) 7 nM

// EC50 lookup, key: COP(=O)(c1cc(C)cc(C)c1)c1c(C(=O)NCCc2ccncc2)[nH]c2ccc(Cl)cc12 (centres unmarked) [Compound 18g] 30.6 nM

// EC50 lookup, key: COP(=O)(c1cc(C)cc(C)c1)c1c(C(=O)NCc2cnccn2)[nH]c2ccc(Cl)cc12 (centres unmarked) [Compound 18i] 16.8 nM

// EC50 lookup, key: COP(=O)(c1cc(F)cc(F)c1)c1c(C(N)=O)[nH]c2ccc(Cl)cc12 (centres unmarked) 17.7 nM

// EC50 lookup, key: COP(=O)(c1cc(F)cc(C(F)(F)F)c1)c1c(C(N)=O)[nH]c2ccc(Cl)cc12 (centres unmarked) 16.6 nM

// EC50 lookup, key: COP(=O)(c1cccc(CF)c1)c1c(C(=O)NCc2ccncc2)[nH]c2ccc(Cl)cc12 (centres unmarked) [Compound 18c] 2.9 nM

====

READOUT: IC50 (µM)
The reply should be a number in µM, with the unit left off.

Lab note: need IC50 with CYP2C9 (Homo sapiens) for entry COP(=O)(C1=C(C(=O)NCc2ccncc2)N=C2C=CC(Cl)=CC21)c1cc(C)cc(F)c1 (centres unmarked) , please look it up. 1.68

Lab note: need IC50 with CYP2C9 (Homo sapiens) for entry COP(=O)(c1cc(C)cc(F)c1)c1c(C(=O)NCc2cc[n+]([O-])cc2)[nH]c2ccc(Cl)cc12 (centres unmarked) , please look it up. 8.85

Lab note: need IC50 with CYP2C9 (Homo sapiens) for entry COP(=O)(C1=C(C(=O)NCc2ccncc2)N=C2C=CC(Cl)=C(F)C21)c1cc(C)cc(C)c1 (centres unmarked) , please look it up. 5.35

====

assay: PK and oral bioavailability in the dog; format: in vivo, Beagle dogs; settings: Beagle, plasma, IV, 1.0 mg/kg, PEG400, read-out: T½ (converted)
READOUT: half-life
Provide a numeric answer, followed by its unit.

// half-life lookup, key: COP(=O)(c1cc(C)cc(C)c1)c1c(C(=O)NCc2cc[n+]([O-])cc2)[nH]c2ccc(Cl)cc12 (centres unmarked) 3.2 h

// half-life lookup, key: COP(=O)(C1=C(C(=O)NCc2ccncc2)N=C2C=CC(Cl)=CC21)c1cc(C)cc(C)c1 (centres unmarked) 4.2 h

====

experiment: pH dependent aqueous solubility, shake-flask method; format: physicochemical; settings: aqueous solution, pH 1, simulated gastric fluid, thermodynamic from solid, pH1, ambient temperature, saturated concentration 1 mM, read-out: Aqueous solubility pH1
Kindly supply the reported solubility at 3 h values for the records listed here.
The reply should be a number in µM, with the unit left off.

// solubility at 3 h lookup, key: COP(=O)(c1cc(C)cc(C)c1)c1c(C(=O)NCc2cc[n+]([O-])cc2)[nH]c2ccc(Cl)cc12 (centres unmarked) 52

// solubility at 3 h lookup, key: COP(=O)(C1=C(C(=O)NCc2ccncc2)N=C2C=CC(Cl)=C(F)C21)c1cc(C)cc(C)c1 (centres unmarked) 820

// solubility at 3 h lookup, key: COP(=O)(c1cc(C)cc(C)c1)c1c(C(=O)NCc2cc[n+]([O-])cc2)[nH]c2ccc(Cl)c(F)c12 (centres unmarked) 190

====

Kindly supply the reported Cmax values for the records listed here.
assay: PK and oral bioavailability in the rat; type: in vivo, Sprague-Dawley rats; settings: Sprague-Dawley, plasma, IV, 1.0 mg/kg, PEG400
The reply should be a number in ng/mL, with the unit left off.

// Cmax lookup, key: COP(=O)(C1=C(C(=O)NCc2ccncc2)N=C2C=CC(Cl)=CC21)c1cc(C)cc(C)c1 (centres unmarked) 119

// Cmax lookup, key: COP(=O)(c1cc(C)cc(C)c1)c1c(C(=O)NCc2cc[n+]([O-])cc2)[nH]c2ccc(Cl)cc12 (centres unmarked) 166

====

Kindly supply the reported AUC(0-inf) values for the records listed here.
test: PK and oral bioavailability in the rat; type: in vivo, Sprague-Dawley rats; settings: Sprague-Dawley, plasma, IV, 1.0 mg/kg, PEG400
The reply should be a number in ng·h/mL, with the unit left off.

// AUC(0-inf) lookup, key: COP(=O)(C1=C(C(=O)NCc2ccncc2)N=C2C=CC(Cl)=CC21)c1cc(C)cc(C)c1 (centres unmarked) [Compound N] 126

// AUC(0-inf) lookup, key: COP(=O)(c1cc(C)cc(C)c1)c1c(C(=O)NCc2cc[n+]([O-])cc2)[nH]c2ccc(Cl)cc12 (centres unmarked) [Compound D] 188

====

experiment: PK and oral bioavailability in the dog; type: in vivo, Beagle dogs; conditions: Beagle, plasma, IV, 1.0 mg/kg, PEG400
READOUT: AUC(0-t) (ng·h/mL)
The reply should be a number in ng·h/mL, with the unit left off.

// AUC(0-t) lookup, key: COP(=O)(c1cc(C)cc(C)c1)c1c(C(=O)NCc2cc[n+]([O-])cc2)[nH]c2ccc(Cl)cc12 (centres unmarked) [Compound D] 1010

// AUC(0-t) lookup, key: COP(=O)(C1=C(C(=O)NCc2ccncc2)N=C2C=CC(Cl)=CC21)c1cc(C)cc(C)c1 (centres unmarked) [Compound N] 924
